Molecular target: T1, SH2 domain of Crkl protein (residues 1-111), H80A variant (UniProt P46109 1-111, H80A)
T1 construct: Crkl adaptor protein, SH2 domain, residues 1-111, His80 replaced by alanine; Site-directed mutant of m1 (QuikChange); source: E. coli BL21 (DE3), purified (HisTrap nickel column, desalting); not shown: His tag, N-terminal, kept
T1 sequence (P46109 1-111 H80A): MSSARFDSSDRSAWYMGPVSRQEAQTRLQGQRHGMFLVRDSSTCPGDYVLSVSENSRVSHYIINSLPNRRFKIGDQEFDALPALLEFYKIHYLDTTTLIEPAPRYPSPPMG
Assay: stopped-flow fluorescence kinetics (FRET); dansyl-Pax112-123 constant at 2 μM mixed with Crkl-SH2 2 to 10 μM (pseudo-first-order, kon); koff by displacement of the preincubated 2 µM complex with excess non-dansylated Pax112-123 (30 μM); 283 K; 50 mM BisTRIS pH 6.8, 0.5 M NaCl
Settings: both partners purified
pKd: −log10 of the molar value. Square brackets hold non-standard residues; d marks the D form. Ends that are not written are not given here. * marks the point of attachment. pY = N[C@@H](Cc1ccc(OP(=O)(O)O)cc1)C(=O)O; Dansyl = CN(C)c1cccc2c(S(=O)(=O)*)cccc12
outcome-measure: pKd

>  <binder>
Dansyl-GEEEHV[pY]SFPNK (The dansyl group is the FRET acceptor of Trp14 of the SH2 domain; source: synthetic peptide, bought: GenScript) [dansylated Pax_(112–123) peptide (Dans-GEEEHV-pY-SFPNK)]

>  <measured-number>
5.51

$$$$
